# system_name: Dual specificity tyrosine-phosphorylation-regulated kinase 1B (Homo sapiens, UniProt Q9Y463)
# Sequence (Q9Y463 whole entry): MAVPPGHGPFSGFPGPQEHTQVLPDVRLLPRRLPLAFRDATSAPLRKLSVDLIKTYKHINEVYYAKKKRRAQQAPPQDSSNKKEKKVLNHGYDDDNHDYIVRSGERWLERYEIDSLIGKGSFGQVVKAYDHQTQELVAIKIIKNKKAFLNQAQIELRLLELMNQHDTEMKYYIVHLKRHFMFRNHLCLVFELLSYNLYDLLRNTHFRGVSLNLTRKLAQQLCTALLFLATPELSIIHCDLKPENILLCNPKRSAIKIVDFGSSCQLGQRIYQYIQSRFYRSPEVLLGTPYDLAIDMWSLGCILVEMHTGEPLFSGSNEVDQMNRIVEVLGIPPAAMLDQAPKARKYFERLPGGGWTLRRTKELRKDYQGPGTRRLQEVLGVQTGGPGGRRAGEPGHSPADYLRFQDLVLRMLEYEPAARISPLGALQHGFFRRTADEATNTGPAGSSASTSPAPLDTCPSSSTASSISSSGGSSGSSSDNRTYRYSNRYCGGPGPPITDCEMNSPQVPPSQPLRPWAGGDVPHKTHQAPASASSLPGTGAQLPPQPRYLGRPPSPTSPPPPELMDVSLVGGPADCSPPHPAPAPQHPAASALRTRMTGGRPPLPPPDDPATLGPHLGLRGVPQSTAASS
# applied_conditions: 0.25 h, read-out: INH
recorded_endpoint: inhibition at 0.25 µM (%)

Would you please look over these solved cases?
## Task Which inhibition at 0.25 µM value belongs to `O=C(Nc1cncc(-c2cccs2)c1)C1CC1` ?
## Result 0

## Task Please look up its inhibition at 0.25 µM: `CCN(C(=O)C1CC1)c1cncc(-c2cc(-c3cccnc3)cs2)c1`
## Result 14.6

1: CC(C)(C)OC(=O)N1CCC(C(=O)Nc2cncc(-c3cc(-c4cccnc4)cs3)c2)C1 (stereo unspecified)
2: CS(=O)(=O)Nc1cncc(-c2cc(-c3cccnc3)cs2)c1
## Task Lab note: record which item had the higher inhibition at 0.25 µM, 1 or 2 . Your answer should be the label of the entry you select.
## Result 1
(1: 34.9%, 2: 23.5%)

###

# system_name: Dual specificity tyrosine-phosphorylation-regulated kinase 1A (Homo sapiens, UniProt Q13627)
# assay_summary: Inhibition of DYRK1A in human HeLa cells harboring GFP-SF3b1-NT assessed as reduction in SF3b1 phosphorylation at T343 residue after 18 hrs by Western blot analysis
# Type: cell-based
recorded_endpoint: IC50 (nM)
Lab book: enter the figure in nM, no units written.

## Task I would be grateful if you could share the reported IC50 for `O=C(Nc1cncc(-c2cc(-c3cccnc3)cs2)c1)C1CC1` .
## Result 43

###

# system_name: Dual specificity tyrosine-phosphorylation-regulated kinase 1B (Homo sapiens)
# assay_summary: Inhibition of full length recombinant human GST-tagged DYRK1B expressed in baculovirus expression system using KKISGRLSPIMTEQ-NH2 as substrate after 15 mins in presence of 15 uM [gamma32P]ATP by phosphor imaging analysis
pIC50: −log10 of the molar value.
recorded_endpoint: pIC50

Solved cases (4 shown):
## Task GET /values?readout=pIC50&item= `Cn1cc(-c2csc(-c3cncc(NC(=O)C4CC4)c3)c2)cn1`
## Result 7.17

## Task Given the entry `CCCn1cc(-c2csc(-c3cncc(NC(=O)C4CC4)c3)c2)cn1` , report its measured pIC50.
## Result 7.01

## Task Dear colleague, I am looking for the recorded pIC50 of the following compound: `O=C(Nc1cncc(-c2cc(-c3cccnc3)cs2)c1)C1CC1`
## Result 7.14

## Task Could you share which pIC50 value was measured for `O=C(Nc1cncc(-c2cc(-c3cn[nH]c3)cs2)c1)C1CC1` ?
## Result 6.86

P: O=C(Nc1cncc(-c2cc(-c3cccnc3)cs2)c1)C1CCC1
Q: O=C(Nc1cncc(-c2cc(-c3cccnc3)cs2)c1)C1CCNC1 (stereo unspecified)
## Task I would appreciate it if you could say which entry, P or Q , has the lower pIC50 value. The response must carry the label of the picked entry.
## Result P

###

# system_name: UniProtKB Q9Y463
# applied_conditions: 0.25 h, read-out: INH
recorded_endpoint: inhibition at 0.25 µM (%)

## Task Item `O=C(Nc1cncc(-c2cc(-c3cccnc3)cs2)c1)C1CCCCC1` has what recorded inhibition at 0.25 µM?
## Result 51

## Task I would be grateful if you could share the reported inhibition at 0.25 µM for `CC(C)n1cc(-c2csc(-c3cncc(NC(=O)C4CC4)c3)c2)cn1` .
## Result 0.7

1: O=C(Nc1cncc(-c2cc(-c3cn[nH]c3)cs2)c1)C1CC1
2: O=C(Nc1cncc(-c2cc(-c3cccnc3)cs2)c1)C1CC1
3: CN(C(=O)C1CC1)c1cncc(-c2cc(-c3cccnc3)cs2)c1
4: O=C(CN1CCOCC1)Nc1cncc(-c2cc(-c3cccnc3)cs2)c1
## Task Order the records, beginning with the lowest inhibition at 0.25 µM and ending with the highest. # the answer lists labels in the order requested
## Result 3, 4, 2, 1
(3: 0.9%, 4: 13.9%, 2: 40%, 1: 58.1%)
